- EXPERIMENTAL_SYSTEM: T1, SFACP, ACP of the FAS from Synechocystis
- T1 chain: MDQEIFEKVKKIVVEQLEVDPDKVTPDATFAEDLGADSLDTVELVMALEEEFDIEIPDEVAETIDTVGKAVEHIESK
The proteins listed here are annotated with their Km.

>  <PROTEIN>
SPPT, Sfp-like phosphopantetheinyl transferase (PPTase) from Synechocystis sp. PCC6803 (protein) MLPQPQIWLCPTDRPLIPGYQALLSSEEMARGERYQRPQDKQRFLTMRLALRILLARQLDCLPQQLQFTYGPQGKPELVDRERRSPWFNVAHSGNYGLIGLSTEGEIGVDLQIMLPKPHYLKLAKRFFAPQEVQQLESLEGEKRTKLFYQLWTAKEAFLKATGKGISGGLNQVIPDENLAKYQYLPDSGDTNHWRLSSQPLLADQGSNDNYWMAIAWCTNEVNQVESNYLPNIQPFQWPRNLDSLP

>  <SCALE_UNIT>
µM

>  <Km>
1.5

$$$$
>  <PROTEIN>
APPT, Sfp-like phosphopantetheinyl transferase (PPTase) from Anabaena sp. PCC7120 (protein) MLQHTWLPKPPNLTLLSDEVHLWRIPLDQPESQLQDLAATLSSDELARANRFYFPEHRRRFTAGRGILRSILGGYLGVEPGQVKFDYESRGKPILGDRFAESGLLFNLSHSQNLALCAVNYTRQIGIDLEYLRPTSDLESLAKRFFLPREYELLRSLPDEQKQKIFFRYWTCKEAYLKATGDGIAKLEEIEIALTPTEPAKLQTAPAWSLLELVPDDNCVAAVAVAGFGWQPKFWHY

>  <SCALE_UNIT>
µM

>  <Km>
2.8

$$$$
>  <PROTEIN>
Sfp, phosphopantetheinyl transferase from Bacillus subtilis (protein) MKIYGIYMDRPLSQEENERFMTFISPEKREKCRRFYHKEDAHRTLLGDVLVRSVISRQYQLDKSDIRFSTQEYGKPCIPDLPDAHFNISHSGRWVIGAFDSQPIGIDIEKTKPISLEIAKRFFSKTEYSDLLAKDKDEQTDYFYHLWSMKESFIKQEGKGLSLPLDSFSVRLHQDGQVSIELPDSHSPCYIKTYEVDPGYKMAVCAAHPDFPEDITMVSYEELL

>  <SCALE_UNIT>
µM

>  <Km>
2.5

$$$$
>  <PROTEIN>
MPPT, Sfp-like phosphopantetheinyl transferase (PPTase) from Microcystis aeruginosa NIES843 (protein) MFISTDEVHLYFISLDPSGDRLETLASLLSEDEIIRANRYHFPEHKRRFLVARGCLREILGSYLAISPEKIEFIYSERGKPSINYQLQFNLSHSEEMAICGLTLTARIGVDLEKMRQMKDLDSLTKRFFCAREHELVEKSAEKEKLFFQLWTAKEAYLKAVGTGISGGLDRVEVGLNPLKLDNVAGEWQLWTAAIGDNYRATVVIEGSDRVIKTFGLSDL

>  <SCALE_UNIT>
µM

>  <Km>
3.2

$$$$
